These data points were gathered from ChEMBL document CHEMBL1201862.

Tested on: SF-268
PROTOCOL: NCI tumour cell line growth inhibition, 48 h
Activity calls are given as the source filed them. Cut-off read from the data, not from the text of the source: active = GI50 up to about 1.1 µM and inactive = higher.
Choose the fitting class; nothing outside Y = active, N = inactive is accepted.

Name the outcome recorded for CS(=O)(=O)c1nc(N)nc2nc[nH]c12 in the assay.
N

Name the outcome recorded for Cc1nn(C(=O)Cc2ccccc2)c2c1C(c1ccccc1)SC(=N)N2 (stereo not given) in the assay.
N

Name the outcome recorded for COc1cc(/C=C2\NC(=S)C3Cc4c(OC)c(C)c(OC)c(OC)c4C2N3C)c(OC)c(C)c1OC (stereo not given) in the assay.
N

Name the outcome recorded for NC(=O)CCSC(CC(=O)c1ccc(Cl)cc1)c1ccc(Cl)cc1 (stereo not given) in the assay.
N

Name the outcome recorded for CNC(=S)Nc1ccc(OC)c2ccccc12 in the assay.
N

Name the outcome recorded for C1=Cc2nc1c(-c1ccncc1)c1ccc([n-]1)c(-c1ccncc1)c1nc(c(-c3ccncc3)c3ccc([n-]3)c2-c2ccncc2)C=C1.[Zn+2] in the assay.
N

Name the outcome recorded for CC(=O)Oc1c2c(c(CC=C(C)C)c3c1C(=O)C1=C[C@@H]4CC5C(C)(C)OC(C/C=C(/C)C(=O)O)(C4=O)[C@@]15O3)OC(C)(CCC=C(C)C)C=C2 (stereo not given in full) in the assay.
Y

Name the outcome recorded for CCOC(=O)NC1C2CC(=O)C(O2)C1OCc1ccccc1 (stereo not given) in the assay.
N

Name the outcome recorded for COc1cc2c(cc1OC)[C@H]1C(COC(=O)c3ccccc3)CS/C(=N/c3ccccc3)N1CC2 (stereo not given in full) in the assay.
N

Name the outcome recorded for Cn1c(=O)[nH]c2[nH]c3ccccc3c2c1=O in the assay.
N
